# assay_system: Ubiquitin carboxyl-terminal hydrolase 1 (Homo sapiens)
# run_description: Inhibitors of USP1/UAF1: Primary Screen; further: nearly all actives have a fitted effect of over 60% in size
# condition_parameters: recombinant USP1/UAF1, Ub-Rhodamine cleavage fluorescence; series mostly up to 57.1 µM
# Text: Deubiquitinating enzymes (DUBs) are a class of enzymes that can cleave isopeptide bond formed between the C-terminal carboxylate of ubiquitin and a lysine side-chain amino group on the target protein. Among them, ubiquitin specific proteases (USPs) constitute the largest DUB family. […] This miniaturized assay has a fluorescent read-out and is used to screen the NIH Molecular Libraries Small Molecule Repository (MLSMR) in order to identify a small molecule that inhibits USP1. […]
In all, about 390,000 compounds went through this assay and about 910 (0.23%) were called active. About 5% were inconclusive and are not listed. The call rests on the fitted dose curve; in most records, active means well fitted inhibition curve with a large enough effect; inconclusive means small, poorly fitted or top-dose-only effect; inactive means no such curve, though single readings can be large or run the other way. Many of the other results were omitted from the sample, so actives are more common in it than they were.
Outcome codes: y (active), n (inactive)

# molecule, label_class
rows = [
    ("CCOc1ccc(CNC(=O)C2CCN(c3nnc(-n4cccc4CNc4ccc(C)cc4)s3)CC2)cc1OC", "n"),
    ("COc1cc(OC)c(OC)cc1/C=C/c1nc2ccccc2c(=O)n1-c1ccc(Br)c(C)c1", "n"),
    ("COc1ccc(S(=O)(=O)/N=C2\\C=C(NS(=O)(=O)c3ccccc3)C(=O)c3ccccc32)cc1", "y"),
    ("CCCN1CCc2nc(N3CCN(C)CC3)ncc2C1", "n"),
    ("C[n+]1ccc(/C=C/c2c[nH]c3ccccc23)cc1", "y"),
    ("Cc1ccc(Cn2c(CNC(=O)Cc3cccc(C)c3)nc3cccnc32)cc1", "n"),
    ("COc1ccccc1-c1cc(C(F)(F)F)nc(S(=O)(=O)CCCC(=O)Nc2ccc(F)cc2F)n1", "n"),
    ("COc1ccc(NC(=O)CSc2nc3ccccc3[nH]2)cc1", "n"),
    ("C#CCOCCOCCOCCNc1nc(N2CCN(C(=O)CCCCCCCCCCNC(=O)[C@H]([C@@H](C)CC)n3cc(CCCCN=C(N)N)nn3)CC2)nc(N2CCN(C(=O)CCCCCCCCCCNC(=O)[C@H](CO)n3cc(CCCSC)nn3)CC2)n1", "y"),
    ("Cc1ccccc1CNC(=O)CCc1cn(Cc2ccccc2C)c2ccccc12", "n"),
    ("COC(=O)c1ccc(NC(=O)c2cc(S(=O)(=O)N3CCC(C)CC3)cn2C)cc1", "n"),
    ("Cc1ccc2c(=O)c(C(=O)c3ccc(F)cc3)cn(CC(=O)NC3CCCCC3)c2n1", "n"),
    ("Cc1ccc2c(c1)N(C(=O)Nc1ccc(Br)cc1F)CCO2", "n"),
    ("CCOC(=O)N1CCc2c(sc3c2C(=O)NC(c2ccccc2F)N3)C1 (stereo not given)", "n"),
    ("Cc1c(-c2nsc(NC(=O)c3cccc(Cl)c3)n2)nnn1-c1ccccc1C(F)(F)F", "n"),
    ("CCN(CC)CCCC(C)n1c2nc(=O)[nH]c(=O)c-2nc2cc(Cl)ccc21 (stereo not given)", "y"),
    ("CCOC(=O)c1c(S(=O)(=O)N2CCCC(C(=O)NCc3ccc(F)cc3)C2)c(C)n(CC)c1C (stereo not given)", "n"),
    ("Cc1ccc(S(=O)(=O)Nc2nc(N)n(-c3ccccc3)n2)cc1", "n"),
    ("O=[N+]([O-])c1ccc(C=Nc2ccc(Cl)cc2Cl)s1", "y"),
    ("Cc1ccc2onc(CC(=O)N3CCN(c4ccc(Cl)cc4)CC3)c2c1", "n"),
]
